Please go through the items and note down their IC50.
experimentalTarget: human PAD4 (hPAD4) (Homo sapiens, UniProt Q9UM07)
Sequence (Q9UM07 whole entry): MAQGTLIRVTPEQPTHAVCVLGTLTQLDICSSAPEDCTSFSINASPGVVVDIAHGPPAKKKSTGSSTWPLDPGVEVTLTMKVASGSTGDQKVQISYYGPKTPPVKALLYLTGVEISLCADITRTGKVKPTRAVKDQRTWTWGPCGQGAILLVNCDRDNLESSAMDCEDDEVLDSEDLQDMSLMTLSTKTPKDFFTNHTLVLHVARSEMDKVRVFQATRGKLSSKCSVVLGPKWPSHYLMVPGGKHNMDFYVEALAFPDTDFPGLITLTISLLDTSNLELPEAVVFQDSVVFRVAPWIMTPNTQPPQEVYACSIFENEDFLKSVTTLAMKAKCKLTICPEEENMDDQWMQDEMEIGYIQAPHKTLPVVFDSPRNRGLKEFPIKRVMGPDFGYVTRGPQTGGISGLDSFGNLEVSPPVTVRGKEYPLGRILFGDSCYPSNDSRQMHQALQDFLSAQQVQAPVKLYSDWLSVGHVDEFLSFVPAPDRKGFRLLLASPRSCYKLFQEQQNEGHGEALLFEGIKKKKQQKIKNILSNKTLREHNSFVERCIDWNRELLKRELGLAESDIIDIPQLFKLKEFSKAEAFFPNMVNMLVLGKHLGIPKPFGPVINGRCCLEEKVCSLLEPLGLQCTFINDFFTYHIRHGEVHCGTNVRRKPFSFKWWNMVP
testDetails: RFMS human PAD4 functional assay (rapid-fire mass spectrum)
statedConditions: 5 nM hPAD4 enzyme, 250 μM BAEE, 50 μM Calcium; 30 min preincubation, 90 min reaction at 37° C.
# include the unit after the value

# count of solved cases: 2
> print(dat)
                                   compound  experimentalvalue
1  COc1cc(C(=O)N2C[C@H]3CC[C@@H]2[C@@H]3N)cc2nc(-c3cc4ccccc4n3CC3CC3)n(CC3CN(C(=O)c4ccccc4Cl)C3)c12              18 nM
2  COc1cc(C(=O)N2CC3CCC2[C@@H]3N)cc2nc(-c3cc4cccnc4n3CC3CC3)n(Cc3cnn(CC#N)c3)c12 (stereo partly drawn)              45 nM

Could you now consider this next compound?
Ask: Give the measured IC50 of COc1cc(C(=O)N2C[C@H]3CC[C@@H]2[C@@H]3N)cc2nc(-c3cc4cccnc4n3CC3CC3)n(CC3CN(C(=O)c4ccnc(C#N)c4)C3)c12 .
Result: 276 nM

---

experimentalTarget: human PAD4 (hPAD4) (Homo sapiens)
testDetails: RFMS human PAD4 functional assay (rapid-fire mass spectrum)
statedConditions: 5 nM hPAD4 enzyme, 250 μM BAEE, 50 μM Calcium; 30 min preincubation, 90 min reaction at 37° C.
readout: IC50 (nM)
One number for each entry, in nM.

# count of solved cases: 2
compound	valueUnits	experimentalValue
COc1cc(C(=O)N2CC3CCC2[C@@H]3N)cc2nc(-c3cc4ccc(Br)cc4n3CC3CC3)n(Cc3cnn(C)c3)c12 (stereo partly drawn) [Example 522]	nM	23
COc1cc(C(=O)N2CC3CCC2[C@@H]3N)cc2nc(-c3cc4cccnc4n3CC3CC3)n(C3CCN(c4ccnc(C)n4)CC3)c12 (stereo partly drawn) [Example 238]	nM	922

Could you now consider this next compound?
Ask: Look up IC50 with human PAD4 (hPAD4) (Homo sapiens) for this compound: N#Cc1ccc(C(=O)N2CC(Cn3c(-c4cc5cccnc5n4CC4CC4)nc4cc(C(=O)N5CC6CCC5[C@@H]6N)ccc43)C2)cc1 (stereo partly drawn) [Example 467]
Result: 91

---

experimentalTarget: human PAD4 (hPAD4) (Homo sapiens)
testDetails: RFMS human PAD4 functional assay (rapid-fire mass spectrum)
statedConditions: 5 nM hPAD4 enzyme, 250 μM BAEE, 50 μM Calcium; 30 min preincubation, 90 min reaction at 37° C.
readout: IC50 (nM)
One number for each entry, in nM.

> print(dat)
                                   compound  readout  experimentalvalue
1  COc1cc(C(=O)N2C[C@H](N)C[C@@H](F)C2)cc2nc(-c3cc4cccnc4n3CC3CC3)n(Cc3ccn(C)n3)c12     IC50                574

Give me IC50 for each of these compounds, listed below.
1. COc1cc(C(=O)N2C[C@H](N)C[C@@H](F)C2)cc2nc(-c3cc4ccccc4n3CC3CC3)n(CCCN3CCCC3=O)c12
2. COc1cc(C(=O)N2C[C@H](N)C[C@@H](F)C2)cc2nc(-c3cc4ccccc4n3CC3CC3)n(CCCOc3ccc(C#N)cc3)c12
3. COc1cc(C(=O)N2C[C@H](N)CC[C@@H]2C)cc2nc(-c3cc4ccccc4n3CC3CC3)n(CC3CN(C(=O)c4ccc(C#N)cc4)C3)c12
4. COc1cc(C(=O)N2CC3CCC2[C@@H]3N)cc2nc(-c3cc4cccnc4n3CC3CC3)n(CC3CCN(c4ccnc(C#N)n4)CC3)c12 (stereo partly shown)
5. COc1cncc(-n2cc(Cn3c(-c4cc5cccnc5n4CC4CC4)nc4cc(C(=O)N5CC6CCC5[C@@H]6N)cc(OC)c43)cn2)c1 (stereo partly shown)
6. COc1cc(C(=O)N2C[C@H]3CC[C@@H]2[C@@H]3N)cc2nc(-c3cc4ccccc4n3CC3CC3)n(CC3CN(c4nccnc4C#N)C3)c12
7. COc1cc(C(=O)N2CC3CCC2[C@@H]3N)cc2nc(-c3cc4cccnc4n3CC3CC3)n(Cc3cnn(-c4cc(F)cnc4O)c3)c12 (stereo partly shown)

Result:
1. 261
2. 145
3. 80
4. 87
5. 19
6. 23
7. 37

Give me IC50 for each of these compounds, listed below.
1. COc1cc(C(=O)N2CC3CCC2[C@@H]3N)cc2nc(-c3cc4cccnc4n3CC3CC3)n(Cc3cnn(-c4cnccn4)c3)c12 (stereo partly shown)
2. COc1cc(C(=O)N2C[C@H]3CC[C@@H]2[C@@H]3N)cc2nc(-c3cc4cccnc4n3CC3CC3)n(CC3CN(C(=O)CC4CC4)C3)c12
3. COc1cc(C(=O)N2C[C@H]3CC[C@@H]2[C@@H]3N)cc2nc(-c3cc4cccnc4n3CC3CC3)n(CC3CN(c4cncnc4C#N)C3)c12 [Example 52]
4. COc1cc(C(=O)N2C[C@H]3CC[C@@H]2[C@@H]3N)cc2nc(-c3cc4ccccc4n3CC3CC3)n(Cc3cn[nH]c3)c12

Result:
[34, 59, 156, 27]

Ask: Give the measured IC50 of COc1cc(C(=O)N2C[C@H]3CC[C@@H]2[C@@H]3N)cc2nc(-c3cc4cccnc4n3CC3CC3)n(Cc3cnn(C)c3)c12 .
Result: 33
